Measured values drawn from PubChem BioAssay (NCI) for this set.

- Test system: SNB-75 CNS
- Method description: NCI tumour cell line growth inhibition, 48 h
Reported TGI values for a set of compounds

A selection of reference data follows.
O=C(NCCCCNc1cccccc1=O)OCc1ccccc1 | > 100 µM
COC(=O)CC1C[C@H](C#N)N(C(=O)c2ccccc2)C[C@@H]1CC[N+](=O)[O-] (some centres not stated) | > 100 µM
O=C(O)c1n[nH][nH]c1=S | > 100 µM
N#CC(C#N)=C1c2ccccc2C(=NN)c2ccccc21 | > 100 µM
CC12O[C@]3([C@H](C(=O)N4CCOC43C)[C@H]1Cl)[C@H]1O[C@H]12 (some centres not stated) | > 100 µM
O=[N+]([O-])c1ccc(C[P+](c2ccccc2)(c2ccccc2)c2ccccc2)cc1 | > 100 µM

Challenge: Please indicate TGI recorded for CCOC(=O)c1nn2c(nc1=O)sc1ccc3ccccc3c12
Response given: > 100 µM

Challenge: Please indicate TGI recorded for O=C1NC2=C(CCCC/C2=N\O)C12CCCCC2
Response given: > 100 µM

Challenge: Please indicate TGI recorded for CN(O)C(=O)SCC(NC(=O)CCC(N)C(=O)O)C(=O)NCC(=O)O (configuration not stated)
Response given: > 2000 µM

Challenge: Please indicate TGI recorded for CN1CCC2(CC1)ONC1=NCCN12
Response given: > 100 µM

Challenge: Please indicate TGI recorded for COc1cc(C(O)CCBr)c(OC)cc1C (configuration not stated)
Response given: > 100 µM

Challenge: Please indicate TGI recorded for Cc1ccc2c(c1)C(=O)N(N(C)C)CC(=O)N2
Response given: > 100 µM

Challenge: Please indicate TGI recorded for COc1ccc(C23C(=O)c4ccccc4N2O[C@H]2C(=O)N(c4ccccc4)C(=O)[C@H]23)cc1 (some centres not stated)
Response given: > 100 µM

Challenge: Please indicate TGI recorded for CN1CN(c2ccccc2)C2(CCN(Cc3csc4ccccc34)CC2)C1=O
Response given: > 100 µM

Challenge: Please indicate TGI recorded for C[C@@]1(C(=O)O)CCC[C@]2(C)C1CC[C@@]13CC(=O)[C@@](CO)(CC[C@]12O)C3 (some centres not stated)
Response given: > 100 µM
